Source: patent US20250163104A1

Target Or System: human PD-1 / PD-L1-Ig binding on Jurkat cell line over-expressing human PD-1 (Jurkat-PD-1) (Homo sapiens)
Construct: expressed in transfected cells; host or cells: Jurkat
Sequence (Q15116 25-288): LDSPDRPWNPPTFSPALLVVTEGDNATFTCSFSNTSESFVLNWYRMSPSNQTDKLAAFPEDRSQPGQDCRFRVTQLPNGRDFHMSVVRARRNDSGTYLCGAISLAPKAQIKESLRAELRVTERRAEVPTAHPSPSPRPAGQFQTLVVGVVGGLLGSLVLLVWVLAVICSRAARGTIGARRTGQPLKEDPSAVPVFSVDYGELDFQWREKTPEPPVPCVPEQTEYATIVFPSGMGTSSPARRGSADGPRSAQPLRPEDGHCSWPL
Test Summary: Jurkat-PD-1 Cell Binding High-Content Screening Assay (CBA)
Assay type: cell-based
Experimental Setup: Jurkat-PD-1 cells, PE-labeled PD-L1-Ig 20 nM final; read-out: Jurkat HPD1_PDL1 IC50
Procedure: Example 3. Jurkat-PD-1 Cell Binding High-Content Screening Assay (CBA) Jurkat-PD-1 Cell Binding High-Content Screening Assay (CBA). Phycoerythrin (PE) was covalently linked to the Ig epitope tag of human PD-L1-Ig and fluorescently-labeled PD-L1-Ig was used for binding studies with a Jurkat cell line over-expressing human PD-1 (Jurkat-PD-1). Briefly, 8×10^3 Jurkat-hPD-1 cells were seeded into 384 well plates in 20 μl of DMEM supplemented with 10% fetal calf serum. […]
pIC50: −log10 of the molar value. Where a SMILES comes first, the peptide text is derived from it. Bridges are numbered along the chain shown (N, C = ends). [ ]: non-standard residue; d: D form. Bip = N[C@@H](Cc1ccc(-c2ccccc2)cc1)C(=O)O; Dab = NCC[C@H](N)C(=O)O

Compound	pIC50
CC(C)C[C@@H]1NC(=O)[C@H](Cc2c[nH]c3ccccc23)NC(=O)[C@H](CC(=O)O)NC(=O)[C@H](Cc2ccc(O)cc2)NC(=O)[C@H](Cc2ccccc2)NC(=O)CSC[C@@H](C(=O)N[C@@H](C)C(N)=O)NC(=O)[C@H]([C@@H](C)O)NC(=O)[C@H](C(C)C)NC(=O)[C@H](CC(C)C)NC(=O)[C@H](CCN)NC(=O)[C@@H](C)NC(=O)[C@H](CCN)NC(=O)[C@H](C(C)C)NC(=O)[C@H](Cc2ccc(-c3ccccc3)cc2)NC1=O [Compound 1105] ({CH2CO}-FYDWL[Bip]V[Dab][dA][Dab]LVTCA-NH2; thioether N-14)	6.99
